// note: pIC50 values for Cholecystokinin receptor type A (Rattus norvegicus, UniProt P30551) were reported in different studies
Reminder that pIC50 is minus the log10 of a molar concentration.

| Compound | pIC50 |
| --- | --- |
| C[C@@](Cc1c[nH]c2ccccc12)(NC(=O)OC1[C@H]2C[C@@H]3C[C@@H](C[C@H]1C3)C2)C(=O)NCCc1ccccn1 (some centres not stated) | 5.73 |
| CC(C)(C)OC(=O)N[C@H](Cc1c[nH]c2ccccc12)C(=O)N[C@H]1C[C@@H]2c3[nH]c4ccccc4c3C[C@@H](C(=O)N[C@@H](Cc3ccccc3)C(N)=O)N2C1=O | 6.09 |
| Cc1cccc(NC(=O)NC2CCc3ccccc3N(CC(=O)N3CCCC3)C2=O)c1 (configuration not stated) | 6.89 |

Consider the compound CCOC(=O)CCCCCC(=O)N(CCc1ccccc1)CC(C)(Cc1c[nH]c2ccccc12)NC(=O)OC1[C@H]2C[C@@H]3C[C@@H](C[C@H]1C3)C2 (some centres not stated) . State its measured pIC50.
5.45

Please give the documented pIC50 of O=C(O)C[C@H](Cc1ccccc1)NC(=O)C(=Cc1c[nH]c2ccccc12)NC(=O)OC1C2CC3CC(C2)CC1C3 (some centres not stated)
7.74

Read off the recorded pIC50 for COC(=O)[C@]1(NC(=O)[C@@](C)(Cc2c[nH]c3ccccc23)NC(=O)OC2C3CC4CC(C3)CC2C4)C[C@H]1c1ccccc1 (some centres not stated)
6.14
